Measured values drawn from ChEMBL document CHEMBL2069259 for this set.

# Test system: Liver microsomes
# Test method notes: Metabolic stability in human liver microsomes assessed as high signal/noise ratio (S/N of >100) by measuring GSH adduct formation at 100 uM after 90 mins by HPLC-MS analysis
# Experimental setup: 1.5 h
Measurement label: Stability

Briefly, Stability measured for NC(=O)N1c2ccccc2C=Cc2ccccc21 [CARBAMAZEPINE] : Unstable

// recorded Stability for CN/C(=N/CCSCc1nc[nH]c1C)NC#N [CIMETIDINE] : Unstable

The compound listed as CN(C)C(=O)Oc1ccc[n+](C)c1 [PYRIDOSTIGMINE] has a reported Stability of Unstable

# compound C[C@H]1[C@H](NC(=O)/C(=N\OC(C)(C)C(=O)O)c2csc(N)n2)C(=O)N1S(=O)(=O)O [AZTREONAM] ; its Stability = Unstable

Lab note: measured Stability of CN(C)/N=N/c1[nH]cnc1C(N)=O [DACARBAZINE] was Unstable

# compound C#C[C@]1(O)CC[C@H]2[C@@H]3CCc4cc(O)ccc4[C@H]3CC[C@@]21C [ETHINYL ESTRADIOL] ; its Stability = Unstable

Entry CCC(C)(C)C(=O)O[C@H]1C[C@@H](C)C=C2C=C[C@H](C)[C@H](CC[C@@H]3C[C@@H](O)CC(=O)O3)[C@H]21 [SIMVASTATIN] — recorded Stability = Unstable

Kindly note the recorded Stability for CO[C@@]12[C@H](COC(N)=O)C3=C(C(=O)C(C)=C(N)C3=O)N1C[C@@H]1N[C@@H]12 [MITOMYCIN] , which is Unstable

More entries:
Looking up COCCCC/C(=N\OCCN)c1ccc(C(F)(F)F)cc1 [FLUVOXAMINE] , I see its Stability listed as Unstable

What the record says about COc1cc([C@@H]2c3cc4c(cc3[C@@H](O[C@@H]3O[C@@H]5CO[C@@H](C)O[C@H]5[C@H](O)[C@H]3O)[C@H]3COC(=O)[C@H]23)OCO4)cc(OC)c1O [ETOPOSIDE] : Stability is Unstable
